These measurements were taken from patent US20070042946A1.

- TESTED ON: human α-thrombin (human, UniProt P00734 328-622)
- ASSAY DETAILS: cell-based or functional assay
Labelling field: enter true (1) if recorded IC50 (DCT), clotting assay, 37° C. is less than 30 nM. Enter false (0) if it equals or exceeds that cut-off.

BINDER: IQPRPQIHNDGDFEEIPEEYLQ [IQ22-I]
CLASS LABEL: false (0)

Now for a further binder.
Task: IC50 (DCT), clotting assay, 37° C. strictly < 30 nM for this binder? FQPRPQMHNDGDFEEIPEEYLQ [FQ22-M]
Result: true (1)
